TESTED_TARGET: opioid receptor delta (Homo sapiens, UniProt P41143)
Construct: expressed in transfected cells
Sequence (P41143 whole entry): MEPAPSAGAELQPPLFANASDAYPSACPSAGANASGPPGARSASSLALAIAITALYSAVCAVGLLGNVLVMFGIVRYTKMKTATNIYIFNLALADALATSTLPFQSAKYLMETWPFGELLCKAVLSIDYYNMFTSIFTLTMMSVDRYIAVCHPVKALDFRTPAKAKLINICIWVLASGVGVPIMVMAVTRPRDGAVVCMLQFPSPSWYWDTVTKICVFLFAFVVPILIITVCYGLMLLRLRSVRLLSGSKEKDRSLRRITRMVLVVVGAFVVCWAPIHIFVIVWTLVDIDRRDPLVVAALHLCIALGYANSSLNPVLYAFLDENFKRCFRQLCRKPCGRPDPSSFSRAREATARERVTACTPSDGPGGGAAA
ASSAY: GTPγ[35S] binding assay, antagonism of BW-373U86
Format: biochemical
REPORTED_CONDITIONS: read-out: Delta functional Ki (GTPγ[35S] binding)
Description: Membranes were prepared from cells as described (Bass et al, 1996). […] Stimulation of GTPγ[^35S] binding was then quantified using a Wallac Microbeta and Ki calculations were done using Prism™ by Graphpad.
QUANTITY_MEASURED: Ki (nM)
Please respond with the number in nM and leave the unit unwritten.

**Query** Fill in reported Ki for this entry: Cc1cc(C(N)=O)ccc1-c1ccc(CNCC2CCOCC2)cc1
**Result** 20.4

**Query** Fill in reported Ki for this entry: Cc1cc(CNCCC(C)C)ccc1-c1ccc(C(N)=O)cc1Cl
**Result** 3.58

**Query** Fill in reported Ki for this entry: Cc1cc(CNCCC2CCOCC2)ccc1-c1ccc(C(N)=O)cc1C
**Result** 1.04

###

TESTED_TARGET: opioid receptor kappa (Homo sapiens, UniProt P41145)
Construct: expressed in transfected cells
Sequence (P41145 whole entry): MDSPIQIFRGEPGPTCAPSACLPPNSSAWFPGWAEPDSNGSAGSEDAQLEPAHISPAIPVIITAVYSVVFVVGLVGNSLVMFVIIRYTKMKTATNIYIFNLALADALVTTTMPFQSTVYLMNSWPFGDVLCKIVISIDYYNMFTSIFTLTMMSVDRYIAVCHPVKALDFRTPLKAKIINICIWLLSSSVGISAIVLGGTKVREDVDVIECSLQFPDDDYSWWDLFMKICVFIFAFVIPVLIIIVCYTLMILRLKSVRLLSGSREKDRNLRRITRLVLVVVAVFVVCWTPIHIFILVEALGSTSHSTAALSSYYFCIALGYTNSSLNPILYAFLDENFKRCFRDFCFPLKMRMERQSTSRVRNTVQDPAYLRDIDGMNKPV
ASSAY: GTPγ[35S] binding assay, antagonism of dynorphin-A
Format: biochemical
REPORTED_CONDITIONS: read-out: Kappa functional Ki (GTPγ[35S] binding)
QUANTITY_MEASURED: pKi
Formally, pKi is defined as -log10 of the concentration c, with c in mol/L.

**Query** Fill in reported pKi for this entry: CC(C)CCNCc1ccc(-c2ccc(-c3ncn[nH]3)cc2C(F)(F)F)cc1
**Result** 7.32

**Query** Fill in reported pKi for this entry: Cc1cc(C(N)=O)ccc1-c1ccc(CNCC2CCOCC2)cc1
**Result** 8.04

**Query** Fill in reported pKi for this entry: Cc1cc(C(N)=O)ccc1-c1c(C)cc(CNC2Cc3ccccc3C2)cc1Cl
**Result** 9.23

**Query** Fill in reported pKi for this entry: CC(C)CCNCc1ccc(-c2cccc(-c3nnc[nH]3)c2)c(F)c1.Cl [E7-02, hydrochloride salt]
**Result** 8.23

**Query** Fill in reported pKi for this entry: Cc1cc(C(N)=O)ccc1-c1cc(F)c(CNCCC(C)C)cc1F
**Result** 8.35

**Query** Fill in reported pKi for this entry: Cc1cc(C(N)=O)ccc1-c1cc(F)c(CNC[C@@H]2CCCO2)c(F)c1
**Result** 8.07

**Query** Fill in reported pKi for this entry: Cc1cc(CNCCC2CCOCC2)ccc1-c1ccc(C(N)=O)cc1C
**Result** 8.61

**Query** Fill in reported pKi for this entry: CC(C)CCNCc1ccc(-c2cccc(-c3ncn[nH]3)c2)cc1
**Result** 8.07

**Query** Fill in reported pKi for this entry: Cc1cc(C(N)=O)ccc1-c1ccc(CN[C@H]2CCc3ccccc32)cc1
**Result** 9.29

**Query** Fill in reported pKi for this entry: CC(C)CCNCc1cc(F)c(-c2ccc(C(N)=O)cc2Cl)cc1F
**Result** 8.02

**Query** Fill in reported pKi for this entry: CCc1cc(C(N)=O)ccc1-c1ccc(CNC2Cc3ccccc3C2)cc1C
**Result** 9.02

**Query** Fill in reported pKi for this entry: NC(=O)c1ccc(-c2ccc(CNCCC3CCOCC3)c(F)c2)c(Cl)c1
**Result** 8.75

**Query** Fill in reported pKi for this entry: NC(=O)c1ccc(-c2ccc(CNCCC3CCCCO3)cc2Cl)c(Cl)c1 (centres unmarked)
**Result** 8.34

**Query** Fill in reported pKi for this entry: Cc1cc(C(N)=O)ccc1-c1ccc(CNC2Cc3ccccc3C2)c(OCc2ccccc2)c1
**Result** 8.76

**Query** Fill in reported pKi for this entry: Cc1cc(C(N)=O)ccc1-c1ccc(CN[C@@H](C)c2ccccc2)cc1
**Result** 8.21

**Query** Fill in reported pKi for this entry: NC(=O)c1ccc(-c2ccc(CNC3Cc4ccccc4C3)c(F)c2)c(Cl)c1
**Result** 9.20

**Query** Fill in reported pKi for this entry: CS(=O)(=O)Nc1ccc(-c2ccc(CNC3Cc4ccccc4C3)c(F)c2)cc1
**Result** 6.24

**Query** Fill in reported pKi for this entry: Cc1cc(C(N)=O)ccc1-c1ccc(CNC2Cc3ccccc3C2)c(O)c1
**Result** 9.11

**Query** Fill in reported pKi for this entry: Cc1cc(C(N)=O)ccc1-c1cc(F)c(CNCC2CCOCC2)c(F)c1
**Result** 8.02

**Query** Fill in reported pKi for this entry: NC(=O)c1cccc(-c2ccc(CNCCc3cscn3)cc2Cl)c1
**Result** 6.33

**Query** Fill in reported pKi for this entry: Cc1cc(CNCCC(C)C)ccc1-c1ccc(-c2ncn[nH]2)cc1
**Result** 8.36

**Query** Fill in reported pKi for this entry: CC(C)CC[NH2+]Cc1ccc(-c2cccc(C(N)=O)c2)c(F)c1
**Result** 7.64

**Query** Fill in reported pKi for this entry: Cc1cc(CNCC2CCCO2)ccc1-c1ccc(C(N)=O)cc1C (centres unmarked)
**Result** 8.26

**Query** Fill in reported pKi for this entry: Cc1cc(CNCCC(C)C)ccc1-c1ccc(NS(C)(=O)=O)cc1
**Result** 6.55

**Query** Fill in reported pKi for this entry: Cc1cc(C(N)=O)ccc1-c1c(C)cc(CNCCC(C)C)cc1Cl
**Result** 8.43

**Query** Fill in reported pKi for this entry: CC(C)CCNCc1ccc(-c2ccc(C(N)=O)cc2Cl)c(F)c1
**Result** 8.31

**Query** Fill in reported pKi for this entry: Cc1cc(C(N)=O)ccc1-c1ccc(CNCC2CCOCC2)c(F)c1
**Result** 8.04

**Query** Fill in reported pKi for this entry: NC(=O)c1ccc(-c2ccc(CN[C@H]3CCc4ccccc43)cc2)c(Cl)c1
**Result** 8.94

**Query** Fill in reported pKi for this entry: Cc1cc(C(N)=O)ccc1-c1ccc(CNCc2cccnc2)cc1
**Result** 8.05
